Where do these numbers come from? They come from ChEMBL document CHEMBL3045565.

# System: Radical scavenging activity
# PROTOCOL DESCRIPTION: Antioxidant activity assessed as DPPH free radical scavenging activity at 10 ug/mL after 20 min by UV-Vis spectrophotometric analysis
# Format: functional
PROPERTY LABEL: Activity (%)
Numbers only, in %.

Okay, here is my list. What is Activity for each of these?
1. COc1ccc(C2CC(c3ccccc3)=Cc3n[nH]c(O)c32)cc1OC (stereo unspecified)
2. COc1ccc(C2CC(c3ccc(OC)c(OC)c3)=Cc3n[nH]c(O)c32)cc1 (stereo unspecified)
3. O=[N+]([O-])c1ccc(C2=Cc3n[nH]c(O)c3C(c3ccc4c(c3)OCO4)C2)cc1 (stereo unspecified)
4. COc1ccc(C2CC(c3ccc4c(c3)OCO4)=Cc3n[nH]c(O)c32)cc1 (stereo unspecified)
5. O=c1[nH][nH]c2c1C(c1ccccc1)CC(c1ccc(F)cc1)=C2 (stereo unspecified)
6. COc1ccc(C2=Cc3n[nH]c(O)c3C(c3ccc(OC)c(OC)c3)C2)cc1 (stereo unspecified)
7. COc1ccc(C2CC(c3ccc(Cl)c(Cl)c3)=Cc3n[nH]c(O)c32)cc1 (stereo unspecified)

1: 18.1; 2: 3.5; 3: 5.3; 4: 19; 5: 23.5; 6: 17.7; 7: 17.6

Okay, here is my list. What is Activity for each of these?
1. COc1ccc(C2CC(c3ccccc3)=Cc3n[nH]c(O)c32)cc1 (stereo unspecified)
2. COc1cc(C2CC(c3ccccc3)=Cc3n[nH]c(O)c32)cc(OC)c1OC (stereo unspecified)
3. COc1ccc(C2CC(c3ccc(Cl)cc3)=Cc3n[nH]c(O)c32)cc1 (stereo unspecified)
4. Cc1ccc(C2CC(c3ccccc3)=Cc3n[nH]c(O)c32)cc1 (stereo unspecified)
5. Cc1ccc(C2=Cc3n[nH]c(O)c3C(c3ccc(C)cc3)C2)cc1 (stereo unspecified)
6. COc1ccc(C2CC(c3ccc(C)cc3)=Cc3n[nH]c(O)c32)cc1OC (stereo unspecified)
7. COc1cc(C2CC(c3ccc(C)cc3)=Cc3n[nH]c(O)c32)cc(OC)c1OC (stereo unspecified)

1: 16.8; 2: 18.1; 3: 13.9; 4: 9.2; 5: 3.4; 6: 15; 7: 15

Okay, here is my list. What is Activity for each of these?
1. Oc1[nH]nc2c1C(c1ccccc1)CC(c1ccccc1)=C2 (stereo unspecified)
2. O=[N+]([O-])c1cccc(C2CC(c3ccc(F)cc3)=Cc3n[nH]c(O)c32)c1 (stereo unspecified)

9.1
22.6

----------
# System: Klebsiella pneumoniae
# PROTOCOL DESCRIPTION: Antibacterial activity against Klebsiella pneumoniae MTCC 7028 assessed as growth inhibition at 100 ug/disk after 24 hr by disk diffusion method
# Format: functional
# CONDITION DETAILS: MTCC 7028, 24 h, read-out: DIZ
Provide the recorded zone of inhibition at 100 µg/disc for the entries that follow.
Answers are plain numbers, in mm.

Guide cases for zone of inhibition at 100 µg/disc, answers given:
{"columns": ["COMPOUND", "UNIT OF MEASUREMENT", "OBSERVED VALUE"],
 "data": [
  ["COc1ccc(C2CC(c3ccccc3)=Cc3n[nH]c(O)c32)cc1 (stereo not given)", "mm", 0],
  ["CCOC(=O)C1C(=O)C=C(c2ccc([N+](=O)[O-])cc2)CC1c1ccc2c(c1)OCO2 (stereo not given)", "mm", 0],
  ["COc1ccc(C2CC(c3ccc4c(c3)OCO4)=Cc3n[nH]c(O)c32)cc1 (stereo not given)", "mm", 0],
  ["CCOC(=O)C1C(=O)C=C(c2ccc(Cl)c(Cl)c2)CC1c1ccc(OC)cc1 (stereo not given)", "mm", 0],
  ["Cc1ccc(C2CC(c3ccccc3)=Cc3n[nH]c(O)c32)cc1 (stereo not given)", "mm", 0]
]}

Okay, here is my list. What is zone of inhibition at 100 µg/disc for each of these?
1. CCOC(=O)C1C(=O)C=C(c2ccccc2)CC1c1ccccc1 (stereo not given)
2. COc1ccc(C2CC(c3ccc(C)cc3)=Cc3n[nH]c(O)c32)cc1OC (stereo not given)
3. COc1ccc(C2CC(c3ccc(Cl)c(Cl)c3)=Cc3n[nH]c(O)c32)cc1 (stereo not given)

10
0
0

Okay, here is my list. What is zone of inhibition at 100 µg/disc for each of these?
1. CCOC(=O)C1C(=O)C=C(c2ccc(F)cc2)CC1c1ccccc1 (stereo not given)
2. Cc1ccc(/C=C/C(=O)c2ccc(C)cc2)cc1

1. 10
2. 0

----------
# Tested on: Radical scavenging activity
# PROTOCOL DESCRIPTION: Antioxidant activity assessed as DPPH free radical scavenging activity at 80 ug/mL after 20 min by UV-Vis spectrophotometric analysis
# Format: functional
PROPERTY LABEL: Activity (%)
Numbers only, in %.

Guide cases for Activity, answers given:
{"columns": ["MOLECULE", "Activity / %"],
 "data": [
  ["O=c1[nH][nH]c2c1C(c1ccccc1)CC(c1ccc(F)cc1)=C2 (stereo unspecified)", 89],
  ["COc1ccc(C2CC(c3ccc(OC)c(OC)c3)=Cc3n[nH]c(O)c32)cc1 (stereo unspecified)", 31.1],
  ["COc1ccc(C2=Cc3n[nH]c(O)c3C(c3ccc(OC)c(OC)c3)C2)cc1 (stereo unspecified)", 90],
  ["O=[N+]([O-])c1ccc(C2=Cc3n[nH]c(O)c3C(c3ccc4c(c3)OCO4)C2)cc1 (stereo unspecified)", 44.5],
  ["COc1ccc(C2CC(c3ccccc3)=Cc3n[nH]c(O)c32)cc1 (stereo unspecified)", 88.4],
  ["COc1ccc(C2CC(c3ccc(Cl)cc3)=Cc3n[nH]c(O)c32)cc1 (stereo unspecified)", 86.4]
]}

Okay, here is my list. What is Activity for each of these?
1. Cc1ccc(C2CC(c3ccccc3)=Cc3n[nH]c(O)c32)cc1 (stereo unspecified)
2. COc1ccc(C2CC(c3ccccc3)=Cc3n[nH]c(O)c32)cc1OC (stereo unspecified)
3. Cc1ccc(C2=Cc3n[nH]c(O)c3C(c3ccc(C)cc3)C2)cc1 (stereo unspecified)
4. O=[N+]([O-])c1cccc(C2CC(c3ccc(F)cc3)=Cc3n[nH]c(O)c32)c1 (stereo unspecified)
5. COc1ccc(C2CC(c3ccc4c(c3)OCO4)=Cc3n[nH]c(O)c32)cc1 (stereo unspecified)
6. Oc1[nH]nc2c1C(c1ccccc1)CC(c1ccccc1)=C2 (stereo unspecified)
7. COc1cc(C2CC(c3ccc(C)cc3)=Cc3n[nH]c(O)c32)cc(OC)c1OC (stereo unspecified)
8. COc1ccc(C2CC(c3ccc(C)cc3)=Cc3n[nH]c(O)c32)cc1OC (stereo unspecified)

[36.4, 90.9, 34.9, 90.1, 89.5, 67.3, 89.9, 80.3]

Okay, here is my list. What is Activity for each of these?
1. COc1cc(C2CC(c3ccccc3)=Cc3n[nH]c(O)c32)cc(OC)c1OC (stereo unspecified)
2. COc1ccc(C2CC(c3ccc(Cl)c(Cl)c3)=Cc3n[nH]c(O)c32)cc1 (stereo unspecified)

1. 90.7
2. 90.4

----------
# System: Klebsiella pneumoniae
# PROTOCOL DESCRIPTION: Antibacterial activity against Klebsiella pneumoniae MTCC 7028 assessed as growth inhibition at 100 ug/disk after 24 hr by disk diffusion method
# Format: functional
# CONDITION DETAILS: MTCC 7028, 24 h, read-out: DIZ
Provide the recorded zone of inhibition at 100 µg/disc for the entries that follow.

{"columns": ["MOLECULE", "zone of inhibition at 100 µg/disc"],
 "data": [
  ["CCOC(=O)C1C(=O)C=C(c2ccccc2)CC1c1cc(OC)c(OC)c(OC)c1 (stereo not given)", "0 mm"],
  ["COc1ccc(C2CC(c3ccc(Cl)cc3)=Cc3n[nH]c(O)c32)cc1 (stereo not given)", "0 mm"],
  ["O=c1[nH][nH]c2c1C(c1ccccc1)CC(c1ccc(F)cc1)=C2 (stereo not given)", "15 mm"],
  ["COc1ccc(C2CC(c3ccc(OC)c(OC)c3)=Cc3n[nH]c(O)c32)cc1 (stereo not given)", "0 mm"],
  ["Oc1[nH]nc2c1C(c1ccccc1)CC(c1ccccc1)=C2 (stereo not given)", "10 mm"],
  ["CCOC(=O)C1C(=O)C=C(c2ccc(OC)cc2)CC1c1ccc(OC)c(OC)c1 (stereo not given)", "0 mm"],
  ["COc1ccc(C2CC(c3ccccc3)=Cc3n[nH]c(O)c32)cc1OC (stereo not given)", "0 mm"],
  ["COc1cc(C2CC(c3ccccc3)=Cc3n[nH]c(O)c32)cc(OC)c1OC (stereo not given)", "0 mm"],
  ["O=[N+]([O-])c1ccc(C2=Cc3n[nH]c(O)c3C(c3ccc4c(c3)OCO4)C2)cc1 (stereo not given)", "0 mm"]
]}

Name the reported zone of inhibition at 100 µg/disc value associated with the molecule CCOC(=O)C1C(=O)C=C(c2ccccc2)CC1c1ccc(C)cc1 (stereo not given)
5 mm
